test system: Paecilomyces variotti ATCC 22319 (QC)
Readings of MIC for the listed molecules
MEASURED QUANTITY: MIC (µg/mL)

1. O=c1n(-c2ccc(OCc3ccccc3)cc2)cnn1C[C@H]1CO[C@@](Cn2cncn2)(c2ccc(F)cc2F)C1
16
2. O=c1n(-c2ccc(-n3cnnn3)cc2)cnn1C[C@@H]1CO[C@@](Cn2cncn2)(c2ccc(F)cc2F)C1
32
3. O=c1n(-c2ccc(Cn3cncn3)cc2)cnn1C[C@@H]1CO[C@@](Cn2cncn2)(c2ccc(F)cc2F)C1
16
4. O=c1n(-c2ccc(N3CCN(c4ccc(OCc5ccccc5)cc4)CC3)cc2)cnn1C[C@H]1CO[C@@](Cn2cncn2)(c2ccc(F)cc2F)C1
1
